molecular target: PI3Kγ (Homo sapiens (Human), UniProt P48736); assay: TR-FRET enzymatic assay of PI3K isoforms (PI3Kγ); format: biochemical; settings: TR-FRET, 2×Km ATP, 2 μM PIP2, PI3Kγ at 2 nM, incubated for 30 minutes at 25° C.; read-out: γ IC50
Sequence (P48736 whole entry, canonical isoform): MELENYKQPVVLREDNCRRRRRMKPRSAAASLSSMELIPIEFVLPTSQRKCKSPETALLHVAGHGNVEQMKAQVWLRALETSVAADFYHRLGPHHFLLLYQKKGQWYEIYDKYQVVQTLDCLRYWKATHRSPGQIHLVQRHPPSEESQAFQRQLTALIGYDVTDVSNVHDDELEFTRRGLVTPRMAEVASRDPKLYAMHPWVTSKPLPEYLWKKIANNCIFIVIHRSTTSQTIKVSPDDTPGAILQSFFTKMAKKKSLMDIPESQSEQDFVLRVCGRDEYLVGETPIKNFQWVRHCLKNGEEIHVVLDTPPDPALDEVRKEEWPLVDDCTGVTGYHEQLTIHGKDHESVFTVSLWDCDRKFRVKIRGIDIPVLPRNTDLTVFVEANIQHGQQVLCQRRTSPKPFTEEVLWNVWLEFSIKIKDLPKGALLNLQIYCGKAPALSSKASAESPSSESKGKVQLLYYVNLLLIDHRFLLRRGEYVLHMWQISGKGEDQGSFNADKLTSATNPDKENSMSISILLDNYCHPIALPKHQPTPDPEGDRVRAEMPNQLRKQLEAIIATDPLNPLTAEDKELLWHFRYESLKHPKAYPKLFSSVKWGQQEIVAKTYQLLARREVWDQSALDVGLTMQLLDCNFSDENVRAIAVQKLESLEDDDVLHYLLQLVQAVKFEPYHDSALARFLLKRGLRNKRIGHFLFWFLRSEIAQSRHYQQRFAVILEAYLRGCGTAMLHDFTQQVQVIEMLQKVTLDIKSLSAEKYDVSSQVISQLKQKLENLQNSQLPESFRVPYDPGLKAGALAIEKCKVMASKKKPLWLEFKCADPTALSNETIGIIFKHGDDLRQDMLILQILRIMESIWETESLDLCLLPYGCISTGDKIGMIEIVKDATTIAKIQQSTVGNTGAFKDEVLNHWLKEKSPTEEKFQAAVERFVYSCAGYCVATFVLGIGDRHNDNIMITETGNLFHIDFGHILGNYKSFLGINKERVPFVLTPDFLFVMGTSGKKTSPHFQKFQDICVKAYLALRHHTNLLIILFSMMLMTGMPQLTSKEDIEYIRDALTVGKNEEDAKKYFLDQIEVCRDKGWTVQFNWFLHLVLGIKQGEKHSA
Sequence (Q8WYR1 whole entry partner, canonical isoform): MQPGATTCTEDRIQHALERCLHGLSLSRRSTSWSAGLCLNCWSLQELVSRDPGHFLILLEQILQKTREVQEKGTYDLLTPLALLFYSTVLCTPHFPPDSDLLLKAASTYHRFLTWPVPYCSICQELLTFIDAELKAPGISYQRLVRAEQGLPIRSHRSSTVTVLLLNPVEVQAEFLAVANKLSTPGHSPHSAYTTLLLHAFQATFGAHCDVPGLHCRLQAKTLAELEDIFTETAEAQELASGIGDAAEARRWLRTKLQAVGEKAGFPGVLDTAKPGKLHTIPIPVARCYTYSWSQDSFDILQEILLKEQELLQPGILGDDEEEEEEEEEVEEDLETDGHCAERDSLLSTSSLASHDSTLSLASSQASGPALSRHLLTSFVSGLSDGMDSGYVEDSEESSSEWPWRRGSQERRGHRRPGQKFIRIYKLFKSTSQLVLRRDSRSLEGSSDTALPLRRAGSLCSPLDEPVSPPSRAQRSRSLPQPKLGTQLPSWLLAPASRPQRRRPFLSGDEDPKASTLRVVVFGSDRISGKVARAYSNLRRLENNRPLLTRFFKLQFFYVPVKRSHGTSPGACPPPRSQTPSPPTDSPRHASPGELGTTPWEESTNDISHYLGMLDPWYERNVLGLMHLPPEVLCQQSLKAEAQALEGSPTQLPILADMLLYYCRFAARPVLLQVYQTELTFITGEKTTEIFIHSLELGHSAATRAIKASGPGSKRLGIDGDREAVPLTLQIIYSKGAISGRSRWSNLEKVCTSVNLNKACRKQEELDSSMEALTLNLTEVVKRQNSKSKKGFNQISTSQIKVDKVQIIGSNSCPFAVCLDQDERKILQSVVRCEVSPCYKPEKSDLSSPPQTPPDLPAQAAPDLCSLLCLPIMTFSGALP
pIC50: −log10 of the molar value.
Parameter pIC50: see the listing below.
measured_quantity: pIC50

* C[C@H](Nc1ncnc(N)c1C#Cc1cnccn1)c1nc2cccc(Cl)c2c(=O)n1-c1cccc(C(N)=O)c1 | < 5.00
* C[C@H](Nc1ncnc(N)c1C#N)c1nc2cccc(Cl)c2c(=O)n1-c1cccc(NC(=O)NC(C)(C)CCO)c1 | 5.29
* C[C@H](Nc1ncnc(N)c1C#N)c1nc2cccc(Cl)c2c(=O)n1-c1cccc(NC(=O)NC2(C(F)(F)F)CC2)c1 | < 5.00
